# tested on: MMP13 (Homo sapiens)
# assay text: off-target proteinase inhibition MMP13
# Type: biochemical
# condition parameters: read-out: Relative enzyme activity MMP13
observable: remaining activity at 200 µM (%)
Entry rule: numbers only, all in %.

remaining activity at 200 µM measured on O=C(Cc1c(-c2ccccc2)n[nH]c1-c1ccccc1)NO [2 e] = 67

Next:
Note to self: remaining activity at 200 µM recorded for O=C(CCc1c(-c2ccccc2)noc1-c1ccccc1)NO [2 d] was 66

Measured remaining activity at 200 µM of O=C(CCc1c(-c2ccccc2)n[nH]c1-c1ccccc1)NO [2 f] : 68

The compound identified as O=C(Cn1c(-c2ccccc2)nnc1-c1ccccc1)NO [2 g] registered its remaining activity at 200 µM at 76

Kindly note the recorded remaining activity at 200 µM for O=C(Cn1c(-c2ccccc2)ccc1-c1ccccc1)NO [2 a] , which is 5

Entry O=C(Cc1c(-c2ccccc2)noc1-c1ccccc1)NO [2 c] , remaining activity at 200 µM reported as 31

Quick note, remaining activity at 200 µM for O=C(Cn1c(-c2ccccc2)cc2ccccc21)NO [4 a] landed at 54

// recorded remaining activity at 200 µM for O=C(Cn1c(-c2ccccc2)nc2ccccc21)NO [4 c] : 72

* * *

The entries below come with measured Ki values attached.
# tested on: recombinant human meprin β (Homo sapiens, UniProt Q16820)
# Sequence (Q16820 62-701): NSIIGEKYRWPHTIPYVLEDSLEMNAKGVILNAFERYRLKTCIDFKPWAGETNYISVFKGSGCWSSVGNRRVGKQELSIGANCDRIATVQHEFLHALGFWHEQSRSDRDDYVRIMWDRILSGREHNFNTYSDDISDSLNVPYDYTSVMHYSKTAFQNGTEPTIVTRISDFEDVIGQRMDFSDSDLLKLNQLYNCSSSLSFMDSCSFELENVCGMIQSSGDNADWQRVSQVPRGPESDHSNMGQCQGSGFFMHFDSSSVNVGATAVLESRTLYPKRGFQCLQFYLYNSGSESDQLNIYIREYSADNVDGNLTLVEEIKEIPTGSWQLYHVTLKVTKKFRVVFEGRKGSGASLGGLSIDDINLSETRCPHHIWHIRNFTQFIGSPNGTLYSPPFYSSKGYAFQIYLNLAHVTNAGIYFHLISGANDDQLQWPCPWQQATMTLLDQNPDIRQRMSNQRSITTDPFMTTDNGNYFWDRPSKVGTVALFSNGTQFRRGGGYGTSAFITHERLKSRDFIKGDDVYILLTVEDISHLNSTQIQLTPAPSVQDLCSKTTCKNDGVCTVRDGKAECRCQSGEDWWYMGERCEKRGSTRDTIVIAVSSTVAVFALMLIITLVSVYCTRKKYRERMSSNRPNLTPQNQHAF
# assay text: meprin β inhibition, quenched fluorogenic peptide substrate assay
Note: unit µM is implicit; provide only the numeric part.

Examples from the recorded data:
// returns Ki for O=C(Cn1c(-c2ccccc2)nc2ncccc21)NO with recombinant human meprin β (Homo sapiens, UniProt Q16820); value = 4.17

Short answer on recombinant human meprin β (Homo sapiens, UniProt Q16820) for O=C(Cc1c(-c2ccccc2)[nH]c2ccccc12)NO , Ki: 1.18

More entries:
Readout Ki for O=C(Cc1c(-c2ccccc2)n[nH]c1-c1ccccc1)NO , test system recombinant human meprin β (Homo sapiens, UniProt Q16820), was 0.199

Entry CCCCC[C@H](CC(=O)NO)C(=O)N[C@H](C(=O)N1CCC[C@H]1CO)C(C)C [Actinonin, reference compound] , tested on recombinant human meprin β (Homo sapiens, UniProt Q16820), has a reported Ki of 0.219

Field Ki (system: recombinant human meprin β (Homo sapiens, UniProt Q16820)) for entry O=C(CCn1nc(-c2ccccc2)cc1-c1ccccc1)NO = 15.4

Ki for recombinant human meprin β (Homo sapiens, UniProt Q16820) with input O=C(Cc1c(-c2ccccc2)noc1-c1ccccc1)NO equals 0.813

// assay recombinant human meprin β (Homo sapiens, UniProt Q16820), entry O=C(Cc1c(-c2ccccc2)nnn1-c1ccccc1)NO , Ki value = 1.45

Reading of Ki for O=C(CCc1c(-c2ccccc2)noc1-c1ccccc1)NO with recombinant human meprin β (Homo sapiens, UniProt Q16820): 13.5

Param item: O=C(Cn1c(-c2ccccc2)nnc1-c1ccccc1)NO ; param system: recombinant human meprin β (Homo sapiens, UniProt Q16820); output Ki: 8.68

Form: item O=C(Cn1c(-c2ccccc2)ccc1-c1ccccc1)NO ; test system recombinant human meprin β (Homo sapiens, UniProt Q16820); Ki: 4.31

Form field Ki for item O=C(Cc1c2ccccc2nn1-c1ccccc1)NO on recombinant human meprin β (Homo sapiens, UniProt Q16820): 3.36

Observed Ki, recombinant human meprin β (Homo sapiens, UniProt Q16820), O=C(CCn1c(-c2ccccc2)nnc1-c1ccccc1)NO : 42.3

Given the compound O=C(Cn1nc(-c2ccccc2)cc1-c1ccccc1)NO and test system recombinant human meprin β (Homo sapiens, UniProt Q16820), the measured Ki is 10.4

recombinant human meprin β (Homo sapiens, UniProt Q16820) data for O=C(Cn1c(-c2ccccc2)nc2ccccc21)NO ; its Ki: 1.62

* * *

# tested on: MMP2 (Homo sapiens, UniProt P08253)
# Sequence (P08253 110-660): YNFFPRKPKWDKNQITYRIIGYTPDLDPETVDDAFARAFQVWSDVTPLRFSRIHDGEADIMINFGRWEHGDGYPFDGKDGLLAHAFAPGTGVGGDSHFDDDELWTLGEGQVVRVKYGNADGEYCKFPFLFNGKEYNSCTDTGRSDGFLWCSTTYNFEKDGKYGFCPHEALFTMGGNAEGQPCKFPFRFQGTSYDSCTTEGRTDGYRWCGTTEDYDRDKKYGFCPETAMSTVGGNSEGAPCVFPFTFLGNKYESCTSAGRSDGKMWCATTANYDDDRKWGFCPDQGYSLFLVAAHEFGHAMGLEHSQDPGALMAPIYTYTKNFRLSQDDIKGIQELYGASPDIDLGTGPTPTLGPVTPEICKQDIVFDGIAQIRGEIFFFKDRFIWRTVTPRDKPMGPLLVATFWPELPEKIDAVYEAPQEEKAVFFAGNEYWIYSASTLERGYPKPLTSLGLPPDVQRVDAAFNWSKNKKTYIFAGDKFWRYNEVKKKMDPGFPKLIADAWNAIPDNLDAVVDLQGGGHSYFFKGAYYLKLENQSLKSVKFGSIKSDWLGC
# assay text: off-target proteinase inhibition MMP2
# Type: biochemical
# condition parameters: read-out: Relative enzyme activity MMP2
The entries below come with measured remaining activity at 10 µM values attached.
Respond with the bare value in %.

The examples below pair each entry with its known result.
Value of remaining activity at 10 µM reported for the compound O=C(CCc1c(-c2ccccc2)n[nH]c1-c1ccccc1)NO is 97

remaining activity at 10 µM reported for this compound O=C(CCc1c(-c2ccccc2)noc1-c1ccccc1)NO : 98

Lab note: measured remaining activity at 10 µM of O=C(Cn1c(-c2ccccc2)nc2ccccc21)NO was 89

Lab note: O=C(Cn1c(-c2ccccc2)ccc1-c1ccccc1)NO gave remaining activity at 10 µM of 83

Form: compound = O=C(Cn1c(-c2ccccc2)cc2ccccc21)NO ; remaining activity at 10 µM = 85

Entry O=C(Cn1c(-c2ccccc2)nnc1-c1ccccc1)NO ; remaining activity at 10 µM = 95

Summary for this compound, O=C(Cc1c(-c2ccccc2)noc1-c1ccccc1)NO : remaining activity at 10 µM is 87

***
Looking up O=C(Cc1c(-c2ccccc2)n[nH]c1-c1ccccc1)NO , I see its remaining activity at 10 µM listed as 104

* * *

pKi values, listed per item
# tested on: recombinant human meprin α (Homo sapiens, UniProt Q16819)
# Sequence (Q16819 66-746): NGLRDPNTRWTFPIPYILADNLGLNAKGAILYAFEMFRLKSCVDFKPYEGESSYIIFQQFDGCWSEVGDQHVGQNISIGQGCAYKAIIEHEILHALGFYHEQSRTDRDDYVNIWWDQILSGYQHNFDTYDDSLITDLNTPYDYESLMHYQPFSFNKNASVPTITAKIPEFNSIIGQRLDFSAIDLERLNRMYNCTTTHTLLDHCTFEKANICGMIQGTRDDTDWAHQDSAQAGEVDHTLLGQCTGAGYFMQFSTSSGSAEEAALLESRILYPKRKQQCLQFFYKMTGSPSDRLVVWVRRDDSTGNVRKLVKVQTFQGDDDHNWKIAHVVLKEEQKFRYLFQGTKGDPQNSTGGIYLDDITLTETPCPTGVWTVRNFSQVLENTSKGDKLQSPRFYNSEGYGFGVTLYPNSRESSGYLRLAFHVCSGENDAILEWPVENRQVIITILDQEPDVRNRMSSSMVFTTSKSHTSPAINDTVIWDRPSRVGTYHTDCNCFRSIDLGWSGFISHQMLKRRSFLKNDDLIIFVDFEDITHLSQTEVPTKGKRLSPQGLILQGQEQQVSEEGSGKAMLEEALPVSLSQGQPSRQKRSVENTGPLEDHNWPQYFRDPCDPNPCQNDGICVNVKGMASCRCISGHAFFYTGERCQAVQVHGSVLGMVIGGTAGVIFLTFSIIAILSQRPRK
# assay text: meprin α inhibition, quenched fluorogenic peptide substrate assay
// returns pKi (minus log10 of molar concentration), number only

The cases that follow already have their pKi on record.
Record summary for O=C(CCc1c(-c2ccccc2)n[nH]c1-c1ccccc1)NO [2 f] : reported pKi = 7.12

Given item O=C(Cc1c(-c2ccccc2)[nH]c2ccccc12)NO [4 e] , the value recorded as its pKi is 7.09

Read the next record carefully.
Data point: O=C(Cn1c(-c2ccccc2)nc2ccccc21)NO [4 c] ; pKi = 6.79

* * *

# tested on: MMP9 (Homo sapiens)
# assay text: off-target proteinase inhibition MMP9
# Type: biochemical
# condition parameters: read-out: Relative enzyme activity MMP9
Each entry below carries its reported remaining activity at 10 µM.
Give a bare numeral; the unit % is implied.

Illustrative cases are given below, each with its answer.
Entry O=C(CCc1c(-c2ccccc2)noc1-c1ccccc1)NO [2 d] — recorded remaining activity at 10 µM = 89

Notebook: O=C(Cn1c(-c2ccccc2)ccc1-c1ccccc1)NO [2 a] , remaining activity at 10 µM read as 92

Turning now to a further molecule:
remaining activity at 10 µM reading for O=C(Cn1c(-c2ccccc2)cc2ccccc21)NO [4 a] : 90

* * *

Entries and their remaining activity at 10 µM values follow.
# tested on: MMP13 (Homo sapiens)
# assay text: off-target proteinase inhibition MMP13
# Assay type: biochemical
# condition parameters: read-out: Relative enzyme activity MMP13
Form entry: value (%) — number only.

For O=C(Cn1c(-c2ccccc2)ccc1-c1ccccc1)NO the molecule record lists remaining activity at 10 µM as 79

The molecule identified as O=C(CCc1c(-c2ccccc2)noc1-c1ccccc1)NO registered its remaining activity at 10 µM at 79

Okay, next one:
remaining activity at 10 µM for O=C(Cc1c(-c2ccccc2)noc1-c1ccccc1)NO is 80

* * *

We begin with a simple list: items and their reported remaining activity at 200 µM.
# tested on: MMP9 (Homo sapiens, UniProt P14780)
# Sequence (P14780 107-707 limits assumed): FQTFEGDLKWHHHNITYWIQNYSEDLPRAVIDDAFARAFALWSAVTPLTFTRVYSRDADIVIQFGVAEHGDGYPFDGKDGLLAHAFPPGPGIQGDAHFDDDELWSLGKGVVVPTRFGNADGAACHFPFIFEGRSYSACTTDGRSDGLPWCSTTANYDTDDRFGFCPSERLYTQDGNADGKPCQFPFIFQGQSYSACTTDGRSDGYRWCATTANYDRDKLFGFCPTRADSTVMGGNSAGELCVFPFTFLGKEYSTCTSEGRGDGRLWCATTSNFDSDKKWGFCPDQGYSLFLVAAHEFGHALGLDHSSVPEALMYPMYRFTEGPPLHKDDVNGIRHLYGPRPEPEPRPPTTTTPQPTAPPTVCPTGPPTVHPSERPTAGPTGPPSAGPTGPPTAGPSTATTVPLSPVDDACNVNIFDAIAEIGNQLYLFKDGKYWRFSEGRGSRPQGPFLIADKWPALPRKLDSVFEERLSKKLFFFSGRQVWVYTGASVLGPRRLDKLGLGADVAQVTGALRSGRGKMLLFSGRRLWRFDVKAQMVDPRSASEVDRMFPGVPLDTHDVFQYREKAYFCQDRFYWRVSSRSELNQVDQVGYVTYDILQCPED
# assay text: off-target proteinase inhibition MMP9
# Type: biochemical
# condition parameters: read-out: Relative enzyme activity MMP9
Give the value in % but do not write % after it.

Use the examples below as a reference point.
remaining activity at 200 µM reported for this compound O=C(Cn1c(-c2ccccc2)ccc1-c1ccccc1)NO [2 a] : 1

Note to self: remaining activity at 200 µM recorded for O=C(CCc1c(-c2ccccc2)n[nH]c1-c1ccccc1)NO [2 f] was 65

Short answer for O=C(Cc1c(-c2ccccc2)n[nH]c1-c1ccccc1)NO [2 e] : remaining activity at 200 µM was 27

New cases:
Documented remaining activity at 200 µM of O=C(Cn1c(-c2ccccc2)nnc1-c1ccccc1)NO [2 g] : 54
